- assay.protocol: Serum half-life and urine concentration in mice (disk agar diffusion bioassay)
- protocol.conditions: mouse, in vivo; strain CD-1 mice; antibiotic activity in blood serum by disk agar diffusion, Bacillus subtilis ATCC 6633 indicator
readout.name: half-life (min)
Answers are plain numbers, in min.

Task item: Bench note: what half-life did CN[C@H](CC(C)C)C(=O)N[C@H]1C(=O)N[C@@H](CC(N)=O)C(=O)N[C@H]2C(=O)N[C@H]3C(=O)N[C@H](C(=O)N[C@H](C(=O)O)c4cc(O)cc(O)c4-c4cc3ccc4O)[C@H](O)c3ccc(c(Cl)c3)Oc3cc2cc(c3O[C@@H]2O[C@H](CO)[C@@H](O)[C@H](O)[C@H]2O[C@H]2C[C@](C)(N)[C@H](O)[C@H](C)O2)Oc2ccc(cc2Cl)[C@H]1O show?
Reply: 18

Where do these numbers come from? They come from patent EP0255256A2.
